B1: Nuclear receptor subfamily 1 group D member 2, residues 103 to 171; numbered along this chain, Q14995 (parent)
chain: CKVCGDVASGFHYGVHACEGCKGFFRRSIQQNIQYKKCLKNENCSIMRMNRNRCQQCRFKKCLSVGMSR

variants of: B1; test: abundance fitness (aPCA) (normalised: wild type 0, dead -1); higher = more abundant; growth selection in yeast, the domain comes from the species named; conditions: Homo sapiens
Assign label 1 to entries whose abundance fitness meets or exceeds -0.4; assign label 0 to the rest.

SEQUENCE_ENTRY: CKVCGDVASGFHYGVHACEGCKGFFRRSIQQNIQYKKCLKNENCSIMRMNRNRCQQCRFKKCLSVGMDR [S68D]
CATEGORY: label 1
--
SEQUENCE_ENTRY: CKVCGDVASGFHYGVHACEGCKGFFRRSIQQNIQYKKCLKNENCSIMRMNRNRCQQCIFKKCLSVGMSR [R58I]
CATEGORY: label 0
--
SEQUENCE_ENTRY: CKVCGDVASGFHYGVHACEGCKGFFRRSIQQNIQYKKCLKNENCSIMRMNRNRAQQCRFKKCLSVGMSR [C54A]
CATEGORY: label 0
--
SEQUENCE_ENTRY: CKVCGDVASGFHYGVHACEGCKGFFRRSIQQNIQYKKCLKNENCSIHRMNRNRCQQCRFKKCLSVGMSR [M47H]
CATEGORY: label 1
--
SEQUENCE_ENTRY: CKVCGDVASGFHYGVHACEGCKGFFRRSIAQNIQYKKCLKNENCSIMRMNRNRCQQCRFKKCLSVGMSR [Q30A]
CATEGORY: label 1
--
SEQUENCE_ENTRY: CKVCGDVASGFHYGVHACEGCKGFFRRSIDQNIQYKKCLKNENCSIMRMNRNRCQQCRFKKCLSVGMSR [Q30D]
CATEGORY: label 1
--
SEQUENCE_ENTRY: CKVCGDVASGFHYGVHACEGCKGFFRRSIQQNIQYKKCLKNENCSIMRMNRNRCQQFRFKKCLSVGMSR [C57F]
CATEGORY: label 0
--
SEQUENCE_ENTRY: CKVCGDVASGFHYGVHACEGCKGFFRRSIQQNIQYKKCLKNENCSIMRRNRNRCQQCRFKKCLSVGMSR [M49R]
CATEGORY: label 1
--
SEQUENCE_ENTRY: CKVCGDVASGFHYGVHACEGCKGFFRRSIQQNIQYKKCLKNENCSIMRMNRNRCQQCRFNKCLSVGMSR [K60N]
CATEGORY: label 1
--
SEQUENCE_ENTRY: CKVCGDVASGFHYGVHACEGCKGFFRNSIQQNIQYKKCLKNENCSIMRMNRNRCQQCRFKKCLSVGMSR [R27N]
CATEGORY: label 1

Data origin: the Human Domainome abundance scans (Beltran et al. 2025)
